B1: 6YSE (parent)
chain: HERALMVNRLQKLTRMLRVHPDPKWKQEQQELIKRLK

Variants of: B1
Experiment: folding stability dG (cDNA display proteolysis); higher = more stable
Conditions: PBS, room temperature
The reader will find reported folding stability dG values listed item by item below.
Write the value in kcal/mol as a bare number.

Suppose we examine the variant I33R ; what folding stability dG value has been reported?
0.898

Suppose we examine the variant M16K ; what folding stability dG value has been reported?
0.733

Suppose we examine the variant Q11R ; what folding stability dG value has been reported?
2.14

Suppose we examine the variant T14D ; what folding stability dG value has been reported?
0.505

Suppose we examine the variant L36Y ; what folding stability dG value has been reported?
-0.212

Suppose we examine the variant L17I ; what folding stability dG value has been reported?
1.09

Suppose we examine the variant I33V ; what folding stability dG value has been reported?
0.738

Suppose we examine the variant L5I ; what folding stability dG value has been reported?
1.41

Suppose we examine the variant H20E ; what folding stability dG value has been reported?
0.232

Suppose we examine the variant A4H ; what folding stability dG value has been reported?
1.35

# input for lookup
Suppose we examine the variant K26I ; what folding stability dG value has been reported?
1.4
